Where these numbers come from: the Human Domainome abundance scans (Beltran et al. 2025)

B1: Chromodomain-helicase-DNA-binding protein 5, residues 338 to 390; numbered along this chain, Q8TDI0 (parent)
chain: YETDHQDYCEVCQQGGEIILCDTCPRAYHLVCLDPELEKAPEGKWSCPHCEKE

Variants of: B1
Test: abundance fitness (aPCA) (normalised: wild type 0, dead -1); higher = more abundant; growth selection in yeast, the domain comes from the species named
Conditions: Homo sapiens
Quick list: abundance fitness per entry.
No unit in the answer, only the number.

Please review the following examples before continuing.
P35E : 0.001
A40P : -0.023
C47W : -0.58
C47V : -0.773
S46A : -0.11

Attention now turns to another entry.
# input For D34Y , what is its reported abundance fitness?
# output -0.269
